Provenance of the data: patent US20260250381A1

Reported values of Binding Signal (fold over 6E7 parental antibody) for individual entries
- target-under-test: T1, human TREM2 (human) (UniProt Q9NZC2)
- T1 sequence (looked up): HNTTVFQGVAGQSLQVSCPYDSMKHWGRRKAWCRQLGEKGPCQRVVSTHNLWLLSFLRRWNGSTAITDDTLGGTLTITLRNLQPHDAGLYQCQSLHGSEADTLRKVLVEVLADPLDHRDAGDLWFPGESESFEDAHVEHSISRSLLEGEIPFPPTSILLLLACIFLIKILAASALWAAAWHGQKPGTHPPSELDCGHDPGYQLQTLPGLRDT
- method-summary: 2nd screen, 10 nM Ab
Numbers only here, please. The scale is fold.

6E7 variant V64 (antibody, V domains shown) VH: EVQLVQSGAEVKKPGESLKISCKGSGYSFQSYWIAWVRQMPGKGLEWMGIIYPGDSDTRYSPSFQGQVTISADKSISTAYLQWSSLKASDTAMYFCARGRTFYYDSSDYFDYWGQGTLVTVSS VL: DIQMTQSPSSVSASVGDRVTITCRASQGISSWLAWYQQKPGKAPKLLIYAASSLANGVPSRFSGSGSGTDFTLTISSLQPEDFATYFCQQADSYPRTFGQGTKLEIK :: 5.48

// below: Binding Signal (fold over 6E7 parental antibody) requested for another binder
input: Item 6E7 variant V40 (antibody, V domains shown) VH: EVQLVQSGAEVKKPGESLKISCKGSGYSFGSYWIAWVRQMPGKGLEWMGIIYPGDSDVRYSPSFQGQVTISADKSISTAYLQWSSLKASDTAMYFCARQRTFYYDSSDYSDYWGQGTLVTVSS VL: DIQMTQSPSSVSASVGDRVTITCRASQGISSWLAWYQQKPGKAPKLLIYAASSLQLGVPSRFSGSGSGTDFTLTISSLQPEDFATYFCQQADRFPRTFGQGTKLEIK has what recorded Binding Signal (fold over 6E7 parental antibody)?
output: 4.16
